Exercise: state measured Cytotoxicity for each of the compounds provided.
Tested on: Vero cells
assay_info: Cell viability assay (CCK-8) on Vero cells
Type: cell-based, African green monkey
run_conditions: 24 h, CCK-8, tested up to 30 µM

Fill in the blank: the reported Cytotoxicity of "CN(C)c1cccc(NC(=O)c2ccc3[nH]c4c(C(=O)c5ccccc5Cl)nccc4c3c2)c1" is ____.
> 30.00 µM

Fill in the blank: the reported Cytotoxicity of "CC(=O)OC[C@H]1O[C@@H](OC(C)=O)[C@H](NC(=O)c2ccc3[nH]c4c(C(=O)c5ccccc5Br)nccc4c3c2)[C@@H](OC(C)=O)[C@@H]1OC(C)=O" is ____.
> 30.00 µM

Fill in the blank: the reported Cytotoxicity of "COc1ccc(NC(=O)c2ccc3[nH]c4c(C(=O)c5ccccc5Cl)nccc4c3c2)cc1" is ____.
> 30.00 µM

Fill in the blank: the reported Cytotoxicity of "CN(C)c1cccc(NC(=O)c2ccc3[nH]c4c(C(=O)c5ccccc5Br)nccc4c3c2)c1" is ____.
> 30.00 µM

Fill in the blank: the reported Cytotoxicity of "Cc1ccc2[nH]c3c(C(=O)c4ccccc4Cl)nccc3c2c1" is ____.
> 30.00 µM

Fill in the blank: the reported Cytotoxicity of "O=C(Nc1ccccc1)c1ccc2[nH]c3c(C(=O)c4cccc(Br)c4)nccc3c2c1" is ____.
> 30.00 µM

Fill in the blank: the reported Cytotoxicity of "COc1ccc(C(=O)c2nccc3c2[nH]c2ccc(C(=O)O)cc23)cc1" is ____.
> 30.00 µM

Fill in the blank: the reported Cytotoxicity of "COc1ccc(C(=O)c2nccc3c2[nH]c2ccc(C)cc23)cc1" is ____.
> 30.00 µM

* * *

assay_info: Cell viability assay (CCK-8) on Vero cells
Type: cell-based, African green monkey
run_conditions: African green monkey, CCK-8, read-out: half-maximal cytotoxic concentration (CC50) against host cells
assay_metric: CC50 at 24 h
Form entry: enter the amount, then its unit.

Fill in the blank: the reported CC50 at 24 h of O=C(Nc1ccccc1)c1ccc2[nH]c3c(C(=O)c4cccc(Br)c4)nccc3c2c1 [NBZ023] is ____.
883 µM

Fill in the blank: the reported CC50 at 24 h of O=C(Nc1ccccc1)c1ccc2[nH]c3c4[n+](ccc3c2c1)-c1ccccc1C4=O [NBZ035] is ____.
80.6 µM
